tissue uptake at 4 h: recorded values
# assay_details: in vivo
# condition_parameters: CD1 nude, mouse, 0.5 nmol/mouse, total radioactivity, Spleen uptake
I only need the number, in %ID/g, no unit after it.

A selection of reference data follows.
compound	tissue uptake at 4 h / %ID/g
Cc1ccc(CCCC(=O)NCCOCCOCCOCCC(=O)NCCCC[C@H](NC(=O)CN2CCN(CC(=O)O)CCN(CC(=O)O)CCN(CC(=O)O)CC2)C(=O)N[C@@H](CC(=O)O)C(=O)N[C@@H](CC2CCCCC2)C(=O)N[C@@H](Cc2ccccc2)C(=O)N[C@H](CO)C(=O)N[C@H](CCCNC(=N)N)C(=O)N[C@@H](Cc2ccc(O)cc2)C(=O)N[C@@H](CC(C)C)C(=O)N[C@@H](Cc2c[nH]c3ccccc23)C(=O)N[C@@H](CO)C(N)=O)cc1 [[^177Lu]Lu-uPAR-15, metal not drawn]	0.93
Cc1ccc(CCCC(=O)NCCOCCOCCOCCOCCC(=O)NCCCC[C@H](NC(=O)CC[C@H](C(=O)O)N2CCN(CC(=O)O)CCN(CC(=O)O)CCN(CC(=O)O)CC2)C(=O)N[C@@H](CC(=O)O)C(=O)N[C@@H](CC2CCCCC2)C(=O)N[C@@H](Cc2ccccc2)C(=O)N[C@H](CO)C(=O)N[C@H](CCCNC(=N)N)C(=O)N[C@@H](Cc2ccc(O)cc2)C(=O)N[C@@H](CC(C)C)C(=O)N[C@@H](Cc2c[nH]c3ccccc23)C(=O)N[C@@H](CO)C(N)=O)cc1 [[^177Lu]Lu-uPAR-17, metal not drawn]	1
Cc1ccc(CCCC(=O)NCCOCCOCCOCCOCCC(=O)NC[C@H](NC(=O)CN2CCN(CC(=O)O)CCN(CC(=O)O)CCN(CC(=O)O)CC2)C(=O)N[C@@H](CC(=O)O)C(=O)N[C@@H](CC2CCCCC2)C(=O)N[C@@H](Cc2ccccc2)C(=O)N[C@H](CO)C(=O)N[C@H](CCCNC(=N)N)C(=O)N[C@@H](Cc2ccc(O)cc2)C(=O)N[C@@H](CC(C)C)C(=O)N[C@@H](Cc2c[nH]c3ccccc23)C(=O)N[C@@H](CO)C(N)=O)cc1 [[^177Lu]Lu-uPAR-14, metal not drawn]	0.99
Cc1ccc(CCCC(=O)NCCOCCOCCOCCOCCC(=O)NCCCC[C@H](NC(=O)CN2CCN(CC(=O)O)CCN(CC(=O)O)CCN(CC(=O)O)CC2)C(=O)N[C@@H](CC(=O)O)C(=O)N[C@@H](CC2CCCCC2)C(=O)N[C@@H](Cc2ccccc2)C(=O)N[C@H](CO)C(=O)N[C@H](CCCNC(=N)N)C(=O)N[C@@H](Cc2ccc(O)cc2)C(=O)N[C@@H](CC(C)C)C(=O)N[C@@H](Cc2c[nH]c3ccccc23)C(=O)N[C@@H](CO)C(N)=O)cc1 [[^177Lu]Lu-uPAR-11, metal not drawn]	1.1
Cc1ccc(CCCC(=O)NCCOCCOCCOCCOCCOCCC(=O)NCCCC[C@H](NC(=O)CN2CCN(CC(=O)O)CCN(CC(=O)O)CCN(CC(=O)O)CC2)C(=O)N[C@@H](CC(=O)O)C(=O)N[C@@H](CC2CCCCC2)C(=O)N[C@@H](Cc2ccccc2)C(=O)N[C@H](CO)C(=O)N[C@H](CCCNC(=N)N)C(=O)N[C@@H](Cc2ccc(O)cc2)C(=O)N[C@@H](CC(C)C)C(=O)N[C@@H](Cc2c[nH]c3ccccc23)C(=O)N[C@@H](CO)C(N)=O)cc1 [[^177Lu]Lu-uPAR-18, metal not drawn]	0.77

Now for a further compound.
Please report the recorded tissue uptake at 4 h for Cc1ccc(CCCC(=O)NCCCCCCCC(=O)NCCCC[C@H](NC(=O)CN2CCN(CC(=O)O)CCN(CC(=O)O)CCN(CC(=O)O)CC2)C(=O)N[C@@H](CC(=O)O)C(=O)N[C@@H](CC2CCCCC2)C(=O)N[C@@H](Cc2ccccc2)C(=O)N[C@H](CO)C(=O)N[C@H](CCCNC(=N)N)C(=O)N[C@@H](Cc2ccc(O)cc2)C(=O)N[C@@H](CC(C)C)C(=O)N[C@@H](Cc2c[nH]c3ccccc23)C(=O)N[C@@H](CO)C(N)=O)cc1 [[^177Lu]Lu-uPAR-12, metal not drawn] .
1.9
